# experimental-target: Integrin alpha-V/beta-5 (Homo sapiens, UniProt P06756+P18084)
# Sequence (P06756 31-889 limits assumed): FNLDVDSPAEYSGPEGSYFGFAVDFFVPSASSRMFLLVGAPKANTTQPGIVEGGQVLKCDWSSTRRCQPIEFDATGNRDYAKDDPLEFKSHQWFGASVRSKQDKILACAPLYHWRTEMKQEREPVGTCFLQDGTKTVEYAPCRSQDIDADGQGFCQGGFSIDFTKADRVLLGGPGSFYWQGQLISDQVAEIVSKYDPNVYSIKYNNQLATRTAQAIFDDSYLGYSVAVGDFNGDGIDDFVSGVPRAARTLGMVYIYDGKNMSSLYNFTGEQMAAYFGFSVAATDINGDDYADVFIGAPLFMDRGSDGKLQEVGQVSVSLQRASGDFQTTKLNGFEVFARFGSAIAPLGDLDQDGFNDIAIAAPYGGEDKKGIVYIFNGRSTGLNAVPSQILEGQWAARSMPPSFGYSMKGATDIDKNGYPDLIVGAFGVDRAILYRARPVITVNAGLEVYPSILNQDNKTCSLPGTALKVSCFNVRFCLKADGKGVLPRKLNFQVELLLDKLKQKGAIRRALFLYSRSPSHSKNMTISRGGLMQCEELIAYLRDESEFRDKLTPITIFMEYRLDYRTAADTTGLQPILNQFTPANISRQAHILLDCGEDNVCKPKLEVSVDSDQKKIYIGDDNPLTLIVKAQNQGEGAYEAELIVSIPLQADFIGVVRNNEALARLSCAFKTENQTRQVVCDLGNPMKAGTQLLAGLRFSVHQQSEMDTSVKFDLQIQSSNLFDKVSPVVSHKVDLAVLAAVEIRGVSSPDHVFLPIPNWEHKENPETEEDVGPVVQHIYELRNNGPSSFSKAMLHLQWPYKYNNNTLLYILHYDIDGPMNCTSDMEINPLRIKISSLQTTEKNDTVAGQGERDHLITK
# Sequence (P06756 891-1048 limits assumed): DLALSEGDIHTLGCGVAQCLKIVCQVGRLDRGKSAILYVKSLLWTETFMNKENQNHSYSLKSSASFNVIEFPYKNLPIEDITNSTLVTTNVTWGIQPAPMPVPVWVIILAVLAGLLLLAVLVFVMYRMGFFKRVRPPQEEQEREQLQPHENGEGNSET
# Sequence (P18084 24-799 limits assumed): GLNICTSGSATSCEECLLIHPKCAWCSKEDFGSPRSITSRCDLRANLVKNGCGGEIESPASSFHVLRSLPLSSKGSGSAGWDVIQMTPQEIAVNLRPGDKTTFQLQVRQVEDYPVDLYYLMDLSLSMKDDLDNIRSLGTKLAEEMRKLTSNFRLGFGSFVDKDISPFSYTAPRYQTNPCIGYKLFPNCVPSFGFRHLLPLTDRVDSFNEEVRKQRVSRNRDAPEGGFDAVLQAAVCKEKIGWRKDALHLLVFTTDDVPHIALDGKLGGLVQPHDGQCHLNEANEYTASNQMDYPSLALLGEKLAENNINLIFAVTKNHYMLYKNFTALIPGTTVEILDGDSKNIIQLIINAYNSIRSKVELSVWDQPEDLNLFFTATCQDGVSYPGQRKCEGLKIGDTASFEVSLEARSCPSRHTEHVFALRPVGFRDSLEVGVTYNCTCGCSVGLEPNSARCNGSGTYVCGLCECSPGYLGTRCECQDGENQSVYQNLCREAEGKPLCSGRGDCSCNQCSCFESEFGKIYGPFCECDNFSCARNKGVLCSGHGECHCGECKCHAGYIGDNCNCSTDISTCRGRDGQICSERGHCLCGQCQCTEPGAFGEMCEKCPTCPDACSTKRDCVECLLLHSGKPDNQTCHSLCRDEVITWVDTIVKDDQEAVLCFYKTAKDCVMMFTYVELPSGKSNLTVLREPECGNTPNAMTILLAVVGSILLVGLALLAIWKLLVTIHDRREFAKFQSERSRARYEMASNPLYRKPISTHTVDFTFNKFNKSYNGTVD
# experiment: Binding affinity to Integrin alphaVbeta5 (unknown origin)
pIC50: −log10 of the molar value.
reported-property: pIC50

a = O=C(O)C[C@H](CN1CC[C@@](F)(CCc2ccc3c(n2)NCCC3)C1)c1cccc(OC2CCOCC2)c1
b = Cc1cc(C)n(-c2cccc([C@H](CC(=O)O)CN3CC[C@@](F)(CCc4ccc5c(n4)NCCC5)C3)c2)n1
Task: Quick check, higher pIC50 between a and b ? // output: label of the selected item
Result: a

----------
# experimental-target: Voltage-gated inwardly rectifying potassium channel KCNH2 (Homo sapiens)
# Sequence (Q12809 whole entry): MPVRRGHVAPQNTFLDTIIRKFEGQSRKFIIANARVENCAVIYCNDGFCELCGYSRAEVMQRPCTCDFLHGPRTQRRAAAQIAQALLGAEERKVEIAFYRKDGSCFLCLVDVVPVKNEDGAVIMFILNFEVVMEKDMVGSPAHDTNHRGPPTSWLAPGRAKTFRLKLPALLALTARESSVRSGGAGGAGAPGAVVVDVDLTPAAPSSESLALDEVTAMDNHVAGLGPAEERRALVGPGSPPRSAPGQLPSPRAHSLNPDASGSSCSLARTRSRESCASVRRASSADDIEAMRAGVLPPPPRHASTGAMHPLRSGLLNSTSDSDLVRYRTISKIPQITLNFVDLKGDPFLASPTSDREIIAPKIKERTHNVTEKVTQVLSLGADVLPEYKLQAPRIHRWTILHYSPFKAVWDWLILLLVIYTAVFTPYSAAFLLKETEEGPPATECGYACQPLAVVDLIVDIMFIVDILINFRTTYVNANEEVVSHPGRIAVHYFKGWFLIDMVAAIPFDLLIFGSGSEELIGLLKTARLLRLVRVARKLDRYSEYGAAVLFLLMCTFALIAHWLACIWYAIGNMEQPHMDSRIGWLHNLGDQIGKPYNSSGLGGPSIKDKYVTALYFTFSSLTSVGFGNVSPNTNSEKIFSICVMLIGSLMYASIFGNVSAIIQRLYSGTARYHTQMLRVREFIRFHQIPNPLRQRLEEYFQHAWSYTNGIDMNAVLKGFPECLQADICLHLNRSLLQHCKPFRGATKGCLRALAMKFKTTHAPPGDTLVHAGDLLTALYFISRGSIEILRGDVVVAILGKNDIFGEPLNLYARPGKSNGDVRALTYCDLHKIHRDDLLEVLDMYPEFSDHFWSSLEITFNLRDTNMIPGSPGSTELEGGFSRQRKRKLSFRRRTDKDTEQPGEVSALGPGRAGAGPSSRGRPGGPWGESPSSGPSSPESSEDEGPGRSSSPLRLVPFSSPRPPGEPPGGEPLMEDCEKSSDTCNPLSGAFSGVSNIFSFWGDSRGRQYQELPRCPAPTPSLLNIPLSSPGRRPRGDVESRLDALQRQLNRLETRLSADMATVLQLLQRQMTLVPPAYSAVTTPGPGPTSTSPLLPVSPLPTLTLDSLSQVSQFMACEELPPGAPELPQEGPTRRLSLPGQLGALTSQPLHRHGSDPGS
# experiment: Inhibition of hERG by patch clamp assay
# Type: toxicity
reported-property: IC50

O=C(O)C[C@H](CN1CC[C@@](F)(CCc2ccc3c(n2)NCCC3)C1)c1cccc(N2CCOCC2)c1	> 10 µM

Turning to the following molecule.
Lab note: O=C(O)C[C@H](CN1CC[C@](F)(CCc2ccc3c(n2)NCCC3)C1)c1cccc(N2CCOCC2)c1 gave IC50 of > 10 µM
